# credit: ChEMBL document CHEMBL2390890

# Tested on: HeLa
# EXPERIMENT_DESCRIPTION: Cytotoxicity against human HeLa cells by MTT assay in presence of serum free media
# Type: cell-based
class 1 if CC50 is below 10 µM. class 0 if not; exact matches included in class 0.

COc1cc(C(=O)Nc2nc3ccc4nc(NCCO)sc4c3s2)cc(OC)c1OC = class 0
COc1cc(C(=O)Nc2nc3ccc4nc(N5CCN(C)CC5)sc4c3s2)cc(OC)c1OC = class 1
COc1cc(C(=O)Nc2nc3ccc4nc(NCCN(C)C)sc4c3s2)cc(OC)c1OC = class 1
COc1cccc(C(=O)Nc2nc3ccc4nc(NCC(C)C)sc4c3s2)c1 = class 0
COc1cc(C(=O)Nc2nc3ccc4nc(NCCN5CCOCC5)sc4c3s2)cc(OC)c1OC = class 1
CCCNc1nc2ccc3nc(NC(=O)c4cccc(OC)c4)sc3c2s1 = class 1
COc1cccc(C(=O)Nc2nc3ccc4nc(NCCN5CCOCC5)sc4c3s2)c1 = class 1
COc1cccc(C(=O)Nc2nc3ccc4nc(N5CCOCC5)sc4c3s2)c1 = class 0
COc1cccc(C(=O)Nc2nc3ccc4nc(SC)sc4c3s2)c1 = class 0
COc1cccc(C(=O)Nc2nc3ccc4nc(NCCO)sc4c3s2)c1 = class 0
